These measurements were taken from patent US20260209346A1.

# TARGET_OF_ASSAY: T1, CD79b endogenously expressed on the cell surface (malignant B cell lines, normal B cells in PBMC, CLL … (human, UniProt P40259 29-229))
# T1 construct: whole, on cells; On cells CD79b stands in the B-cell receptor complex with CD79a and surface Ig; also called cell surface CD79b; endogenous CD79b
# T1 sequence (looked up): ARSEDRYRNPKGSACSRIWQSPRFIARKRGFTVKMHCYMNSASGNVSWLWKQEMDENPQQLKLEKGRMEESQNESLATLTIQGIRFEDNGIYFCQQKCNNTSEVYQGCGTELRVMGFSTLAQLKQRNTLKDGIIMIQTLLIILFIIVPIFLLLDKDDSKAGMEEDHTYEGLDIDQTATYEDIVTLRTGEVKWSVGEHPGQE
# TEST_METHOD_NOTES: flow cytometry on Nalm-6 cells; anti-human IgG1-PE; MFI (PE); table under the graph
Lab note: compare EC50 with 3 nM, writing 1 (yes) if less and 0 (no) if equal or more.

BINDER	QUALITATIVE_LABEL
ch23D8 (antibody, human IgG1, kappa, V domains shown, Rabbit/human chimeric IgG1 kappa; also called chimeric 23D8) VH: QSLEESGGGLVTPGGTLTLTCTVSGLSLSSNAINWVRQAPGKGLEWIGMIYSGGRIEYASWAKGRFTISKTSTTVDLKITSPTTEDTATYFCAKGMSPSAHSSDIWGPGTLVTVSA VL: AYDMTQTPASVEVAVGGTVTIKCQASQSISDNLSWYQQKPGQPPKLLIYDASDLASGVPSRFSGSGSGTEFTLTISDLEPADAATYYCQQDWISSNVDNTFGGGTEVVVKR	0 (no)

(Q) I'd appreciate it if you could check whether polatuzumab (antibody, V domains shown) VH: EVQLVESGGGLVQPGGSLRLSCAASGYTFSSYWIEWVRQAPGKGLEWIGEILPGGGDTNYNEIFKGRATFSADTSKNTAYLQMNSLRAEDTAVYYCTRRVPIRLDYWGQGTLVTVSS VL: DIQLTQSPSSLSASVGDRVTITCKASQSVDYEGDSFLNWYQQKPGKAPKLLIYAASNLESGVPSRFSGSGSGTDFTLTISSLQPEDFATYYCQQSNEDPLTFGQGTKVEIKR has EC50 smaller than 3 nM.
(A) 0 (no)

(Q) Does ch22D10 (antibody, human IgG1, kappa, V domains shown, Rabbit/human chimeric IgG1 kappa; also called chimeric 22D10) VH: QSVEESGGRLVTPGTPLTLTCTASGFTINDYHMNWVRQAPGKGLEWIGIISSNGDTYYASWAKGRFTISRTSTTVDLKMTSLTTEDTATYFCARDDRDRSYAFDPWGPGTLVTVSS VL: ALVMTQTPSSVSAAVGGTVTINCRASEDIERYLAWYQQKPGQRPKLLIYGASTLASGVPSRFKGSGSGTEYTLTISGVQPDDAATYYCHQGDSSRNVVNVFGGGTEVVVKR have EC50 strictly under 3 nM?
(A) 1 (yes)

(Q) In plain terms, does ch48H10 (antibody, human IgG1, kappa, V domains shown, Rabbit/human chimeric IgG1 kappa; also called chimeric 48H10) VH: QSVKETGGGLVQPGGSLTLSCKASGFTINIDYWISWVRQAPGKGLEWIGIIDPGDGTTYFAIWVSGRFTISTDNAQNTVDLQMNSLTAADTATYFCAREFSASAYQYDLWGPGTLVTVSS VL: ALVMTQTPSSVSAAVGGTVSINCQASEDIESYLTWYQQKPGQPPKLLMYRASTLSSGVSSRFSASGSGTEFTLTISGVQPDDAATYYCQQGYRNKDVDNPFGGGTEVVVKR come in under 3 nM for EC50?
(A) 1 (yes)

(Q) Below 3 nM on EC50? Entry ch44G2 (antibody, human IgG1, kappa, V domains shown, Rabbit/human chimeric IgG1 kappa; also called chimeric 44G2) VH: QSVRETGGGLVQPGGSLKLSCKASGFTINIDYWISWVRQAPGKGLEWIGIIDPGDGTTYFAIWVSGRFTISFDNTQNTVDLQMNSLTAADTATYFCVREFSASAYQYDLWGPGTLVTVSS VL: DLVMTQTPSSVSAAVGGTVSINCRASEDIENYLAWYQQKPGQPPKLLIYRASTLSSGVSSRFSGSGSGTEFTLTISGVQPDDAATYYCQQGYRNSNVDNPFGGGTEMVVKR
(A) 1 (yes)

(Q) For ch57B9 (antibody, human IgG1, kappa, V domains shown, Rabbit/human chimeric IgG1 kappa; also called chimeric 57B9) VH: QSVRETGGGLVQPGGSLTLSCEASEFTINIDYWISWVRQAPGKGLEWIGIIDPGDGTTYFAIWVSGRFTITRNTNLNTVDLKMTSLTEADTATYFCAREVSASAYQYDLWGPGTLVTVSS VL: ALVMTQTPSSVSADVGGTVSINCQASEDIESYLAWYQQKPGQPPKLLIYFTSNLASGVPSRFKGSGSGTEYTLTISGVQPDDAATYYCQQGYRNSDVHNPFGGGTEVVVKR , is the recorded EC50 below the cut-off of 3 nM?
(A) 1 (yes)
